# Target System: UniProt:Q96T88
# Sequence (Q96T88 whole entry): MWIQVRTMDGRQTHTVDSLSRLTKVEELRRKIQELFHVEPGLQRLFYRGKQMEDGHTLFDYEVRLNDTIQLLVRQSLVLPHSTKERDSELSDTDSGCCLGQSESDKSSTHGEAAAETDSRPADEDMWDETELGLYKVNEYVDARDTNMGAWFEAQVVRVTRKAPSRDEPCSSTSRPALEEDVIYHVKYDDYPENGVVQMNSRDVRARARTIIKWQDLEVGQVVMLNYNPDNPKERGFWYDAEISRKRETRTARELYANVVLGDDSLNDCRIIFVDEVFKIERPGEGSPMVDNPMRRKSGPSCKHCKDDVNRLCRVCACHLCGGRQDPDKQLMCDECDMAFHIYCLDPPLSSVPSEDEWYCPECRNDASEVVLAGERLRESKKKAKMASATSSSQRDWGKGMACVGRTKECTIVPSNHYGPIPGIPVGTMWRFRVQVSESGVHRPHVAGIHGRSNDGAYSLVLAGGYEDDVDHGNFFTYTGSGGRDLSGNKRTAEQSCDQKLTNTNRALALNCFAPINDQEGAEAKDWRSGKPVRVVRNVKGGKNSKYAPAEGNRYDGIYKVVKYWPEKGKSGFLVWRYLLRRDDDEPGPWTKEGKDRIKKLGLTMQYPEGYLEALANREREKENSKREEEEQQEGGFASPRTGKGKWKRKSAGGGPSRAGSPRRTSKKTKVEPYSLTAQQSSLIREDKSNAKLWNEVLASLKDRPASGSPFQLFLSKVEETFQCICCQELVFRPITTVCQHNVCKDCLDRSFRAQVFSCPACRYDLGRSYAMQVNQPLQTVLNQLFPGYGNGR
# Protocol: Inhibition of UHRF1 in human MCF7 cells assessed as decrease in methylation at RAR beta exon at 15 uM after 72 hrs by methylation specific-PCR method
# Assay type: cell-based
Active and inactive are the calls of the source. The rule behind the calls is not given here.
Metric: RAR beta exon methylation decrease (activity call)

Sample answers from the record:
> print(dat)
                                   compound  test.value
1  Nc1ncn([C@@H]2O[C@H](CO)[C@@H](O)[C@H]2O)c(=O)n1      Active
2                 CN(C)c1c[nH]c(=O)[nH]c1=O      Active
3  c1ccc2c(C3CCN(CCN4CCOCC4)C3)c[nH]c2c1 (stereo not given)      Active
4                CC(=O)c1c[nH]c(=O)[nH]c1=O      Active

Field: next compound
Hey, UniProt:Q96T88 data for "CCOC(=O)c1cnc(=O)[nH]c1N" : RAR beta exon methylation decrease (activity call) came out at Active

Data origin, for the record: ChEMBL document CHEMBL3779829
